Data origin, for the record: ChEMBL document CHEMBL4813963

Biological target: Mitogen-activated protein kinase kinase kinase kinase 4 (Homo sapiens)
Sequence (O95819 whole entry): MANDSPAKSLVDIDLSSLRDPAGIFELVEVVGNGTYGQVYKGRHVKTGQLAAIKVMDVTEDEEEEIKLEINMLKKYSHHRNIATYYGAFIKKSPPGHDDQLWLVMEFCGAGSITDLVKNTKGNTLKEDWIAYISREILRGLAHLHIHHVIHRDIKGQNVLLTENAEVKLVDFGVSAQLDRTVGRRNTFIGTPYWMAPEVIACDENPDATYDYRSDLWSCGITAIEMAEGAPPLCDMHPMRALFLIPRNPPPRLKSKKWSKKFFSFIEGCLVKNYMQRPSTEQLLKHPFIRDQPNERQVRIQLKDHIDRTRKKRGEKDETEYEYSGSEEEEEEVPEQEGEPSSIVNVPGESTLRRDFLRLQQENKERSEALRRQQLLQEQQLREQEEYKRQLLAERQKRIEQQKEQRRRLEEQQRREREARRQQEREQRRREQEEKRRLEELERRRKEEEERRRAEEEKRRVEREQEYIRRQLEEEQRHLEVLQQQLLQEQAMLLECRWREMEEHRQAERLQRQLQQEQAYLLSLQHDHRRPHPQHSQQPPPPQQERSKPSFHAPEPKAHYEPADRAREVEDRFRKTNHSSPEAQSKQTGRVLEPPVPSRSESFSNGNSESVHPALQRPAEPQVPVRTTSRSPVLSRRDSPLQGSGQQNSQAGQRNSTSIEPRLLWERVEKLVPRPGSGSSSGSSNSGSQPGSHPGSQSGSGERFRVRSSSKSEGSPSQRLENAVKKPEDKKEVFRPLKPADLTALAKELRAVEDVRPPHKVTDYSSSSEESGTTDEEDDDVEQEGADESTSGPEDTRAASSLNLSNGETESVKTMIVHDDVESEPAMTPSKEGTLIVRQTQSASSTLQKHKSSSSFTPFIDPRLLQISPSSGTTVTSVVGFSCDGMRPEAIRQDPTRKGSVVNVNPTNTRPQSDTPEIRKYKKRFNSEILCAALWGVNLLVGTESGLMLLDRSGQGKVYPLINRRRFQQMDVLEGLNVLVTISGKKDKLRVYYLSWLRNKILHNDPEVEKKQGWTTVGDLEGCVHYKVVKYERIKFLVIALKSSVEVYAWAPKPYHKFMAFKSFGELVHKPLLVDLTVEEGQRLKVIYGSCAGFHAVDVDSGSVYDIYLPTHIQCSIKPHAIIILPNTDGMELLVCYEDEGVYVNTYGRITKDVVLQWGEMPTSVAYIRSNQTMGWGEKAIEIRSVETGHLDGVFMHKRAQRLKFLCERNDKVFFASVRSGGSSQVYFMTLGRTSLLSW
Test: Inhibition of MAP4K4 (unknown origin)
Measurement Kind: IC50 (µM)
Write the answer as a number in µM, unit excluded.

Recorded IC50 for `Cn1cc(-c2cc3ncnc(Nc4ccc(CC(=O)Nc5cc(C(C)(C)C)nn5C)cc4)c3s2)cn1` , please?
41.5

* * *

// IC50 lookup, one value per entry
Test system: KM12
Test: Cytotoxicity against human KM12 cells assessed as reduction in cell viability incubated for 72 hrs by resazurin based assay
Type: functional
Conditions: KM12, 72 h
Just the number please, in µM, no unit attached.

# Mol Smiles, Unit String, Endpoint Result
rows = [
    ("COc1ccc(Nc2ncnc3ccsc23)cc1", "µM", 103),
    ("C#Cc1cccc(NC(=O)Cc2ccc(Nc3ncnc4ccsc34)cc2)c1", "µM", 38.8),
    ("Cn1nc(C(C)(C)C)cc1NC(=O)Cc1ccc(-c2ncnc3ccsc23)cc1", "µM", 25.2),
    ("CN1CCN(c2ccc(C(=O)Nc3n[nH]c4ccc(Cc5cc(F)cc(F)c5)cc34)c(NC3CCOCC3)c2)CC1", "µM", 0.012),
]

Please look up its IC50: `CC(C)(C)c1cc(NC(=O)Cc2ccc(-c3ncnc4ccsc34)cc2)no1`
86.5

* * *

Target: Serine/threonine-protein kinase Nek2 (Homo sapiens, UniProt P51955)
Sequence (P51955 whole entry): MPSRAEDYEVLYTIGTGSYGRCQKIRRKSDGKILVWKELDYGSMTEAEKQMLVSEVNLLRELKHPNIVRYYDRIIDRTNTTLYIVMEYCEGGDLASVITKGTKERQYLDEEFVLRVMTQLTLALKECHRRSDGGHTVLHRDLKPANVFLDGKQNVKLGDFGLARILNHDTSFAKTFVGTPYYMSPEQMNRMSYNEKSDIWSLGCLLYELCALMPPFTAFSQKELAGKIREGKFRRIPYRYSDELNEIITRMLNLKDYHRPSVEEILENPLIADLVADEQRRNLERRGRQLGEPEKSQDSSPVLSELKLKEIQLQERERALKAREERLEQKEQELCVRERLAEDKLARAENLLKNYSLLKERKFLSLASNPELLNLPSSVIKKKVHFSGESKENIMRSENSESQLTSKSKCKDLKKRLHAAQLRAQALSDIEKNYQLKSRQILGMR
pIC50: −log10 of the molar value.
Measurement Kind: pIC50

Tell me the measured pIC50 of `Cn1cc(-c2cc3ncnc(Nc4ccc(CC(=O)Nc5cc(C(C)(C)C)nn5C)cc4)c3s2)cn1` , please.
< 3.70

* * *

Target: High affinity nerve growth factor receptor (Homo sapiens)
Sequence (P04629 33-796 limits assumed): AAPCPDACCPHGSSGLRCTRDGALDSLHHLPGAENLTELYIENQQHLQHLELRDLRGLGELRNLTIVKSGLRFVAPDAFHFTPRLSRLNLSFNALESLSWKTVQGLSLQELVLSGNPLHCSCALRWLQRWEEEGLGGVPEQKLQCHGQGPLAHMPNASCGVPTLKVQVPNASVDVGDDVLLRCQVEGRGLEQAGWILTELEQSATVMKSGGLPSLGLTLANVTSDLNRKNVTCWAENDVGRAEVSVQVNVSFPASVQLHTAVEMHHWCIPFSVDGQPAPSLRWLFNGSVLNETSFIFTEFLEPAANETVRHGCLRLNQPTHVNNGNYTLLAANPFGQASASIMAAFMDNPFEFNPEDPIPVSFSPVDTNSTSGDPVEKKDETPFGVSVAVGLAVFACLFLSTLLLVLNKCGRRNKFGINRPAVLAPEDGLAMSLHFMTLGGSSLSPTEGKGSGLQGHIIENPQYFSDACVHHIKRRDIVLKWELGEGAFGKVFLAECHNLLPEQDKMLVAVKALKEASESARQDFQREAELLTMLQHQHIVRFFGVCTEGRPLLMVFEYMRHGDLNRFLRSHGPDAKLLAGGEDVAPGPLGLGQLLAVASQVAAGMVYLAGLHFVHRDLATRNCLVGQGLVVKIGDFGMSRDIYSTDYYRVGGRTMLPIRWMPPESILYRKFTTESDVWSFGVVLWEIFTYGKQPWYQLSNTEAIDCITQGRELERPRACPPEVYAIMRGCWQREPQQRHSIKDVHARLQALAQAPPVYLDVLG
Assay: Inhibition of recombinant His-tagged human TRKA (441 to 796 residues) expressed in baculovirus expression system at 20 uM using 5-FAM-EEPLYWSFPAKKK-CONH2 as substrate preincubated for 1 hr followed by substrate addition in presence of ATP by mobility shift assay relative to control
Measurement Kind: inhibition (%)
Reply with just the number (in %).

# Mol Smiles, Measurement Kind, Endpoint Result
rows = [
    ("Cn1nc(C(C)(C)C)cc1NC(=O)Cc1ccc(-c2ncnc3ccsc23)cc1", "inhibition", 31.4),
]

Find inhibition (High affinity nerve growth factor receptor (Homo sapiens)) for the entry `Fc1ccc(Nc2ncnc3ccsc23)cc1`
17.4

For `COc1ccc(Nc2ncnc3ccsc23)cc1` then?
18

Now the compound `O=C(c1ccc(Nc2ncnc3ccsc23)cc1)N1CCCCC1`
16.5

Now consider `O=C(Cc1ccc(-c2ncnc3ccsc23)cc1)N[C@@H]1CCCC[C@H]1O` and answer again.
18

Try `CC(C)(C)c1cc(NC(=O)Cc2ccc(-c3ncnc4ccsc34)cc2)no1` next.
18
